Please respond with reported Activity for every item in the list.
# assay-procedure: Immunostimulatory activity in Balb/c mouse splenocytes assessed as increase in conA-induced T cell proliferation at 100 uM after 72 hrs by MTT assay relative to control
# Type: functional, Splenocyte
State the answer as a number, implicitly in %.

The value of Activity measured for the compound `O=C1CS[C@H]([C@H]2O[C@H](CO)[C@@H](O)[C@@H]2O)N1c1ccc(Cl)cc1` turned out to be 107.1

The value of Activity measured for the compound `Cc1ccc(N2C(=O)CS[C@H]2[C@H]2O[C@H](CO)[C@@H](O)[C@@H]2O)cc1` turned out to be 95.2

The value of Activity measured for the compound `COc1cccc(N2C(=O)CS[C@@H]2[C@H]2O[C@H](CO)[C@@H](O)[C@@H]2O)c1` turned out to be 125.4

The value of Activity measured for the compound `Cc1cccc(N2C(=O)CS[C@@H]2[C@H]2O[C@H](CO)[C@@H](O)[C@@H]2O)c1` turned out to be 160.3

The value of Activity measured for the compound `COc1ccc(N2C(=O)CS[C@H]2[C@H]2O[C@H](CO)[C@@H](O)[C@@H]2O)cc1` turned out to be 99.2

The value of Activity measured for the compound `Cc1cccc(N2C(=O)CS[C@H]2[C@H]2O[C@H](CO)[C@@H](O)[C@@H]2O)c1` turned out to be 169.8

The value of Activity measured for the compound `Cc1ccc(N2C(=O)CS[C@@H]2[C@H]2O[C@H](CO)[C@@H](O)[C@@H]2O)cc1` turned out to be 105.6

The value of Activity measured for the compound `COc1cccc(N2C(=O)CS[C@H]2[C@H]2O[C@H](CO)[C@@H](O)[C@@H]2O)c1` turned out to be 162.7

The value of Activity measured for the compound `CCOC(=O)c1ccc(N2C(=O)CS[C@@H]2[C@H]2O[C@H](CO)[C@@H](O)[C@@H]2O)cc1` turned out to be 180.2

The value of Activity measured for the compound `COc1ccc(N2C(=O)CS[C@@H]2[C@H]2O[C@H](CO)[C@@H](O)[C@@H]2O)cc1` turned out to be 99.6

The value of Activity measured for the compound `O=C1CS[C@@H]([C@H]2O[C@H](CO)[C@@H](O)[C@@H]2O)N1c1ccc(Cl)cc1` turned out to be 112.4

The value of Activity measured for the compound `CCOC(=O)c1ccc(N2C(=O)CS[C@H]2[C@H]2O[C@H](CO)[C@@H](O)[C@@H]2O)cc1` turned out to be 142.9

The value of Activity measured for the compound `O=C1CS[C@H]([C@H]2O[C@H](CO)[C@@H](O)[C@@H]2O)N1c1cccc(Cl)c1` turned out to be 144.4

The value of Activity measured for the compound `O=C1CS[C@@H]([C@H]2O[C@H](CO)[C@@H](O)[C@@H]2O)N1c1cccc(Cl)c1` turned out to be 126

###

# assay-procedure: Immunostimulatory activity in Balb/c mouse splenocytes assessed as increase in conA-induced T cell proliferation at 5 uM after 72 hrs by MTT assay relative to control
# Format: functional, Splenocyte
Please respond with reported Activity for every item in the list.
State the answer as a number, implicitly in %.

The value of Activity measured for the compound `O=C1CS[C@@H]([C@H]2O[C@H](CO)[C@@H](O)[C@@H]2O)N1c1ccc(Cl)cc1` turned out to be 100

The value of Activity measured for the compound `COc1cccc(N2C(=O)CS[C@H]2[C@H]2O[C@H](CO)[C@@H](O)[C@@H]2O)c1` turned out to be 146

The value of Activity measured for the compound `Cc1cccc(N2C(=O)CS[C@H]2[C@H]2O[C@H](CO)[C@@H](O)[C@@H]2O)c1` turned out to be 149.2

The value of Activity measured for the compound `O=C1CS[C@@H]([C@H]2O[C@H](CO)[C@@H](O)[C@@H]2O)N1c1cccc(Cl)c1` turned out to be 139.7

The value of Activity measured for the compound `O=C1CS[C@H]([C@H]2O[C@H](CO)[C@@H](O)[C@@H]2O)N1c1ccc(Cl)cc1` turned out to be 101.6

The value of Activity measured for the compound `Cc1ccc(N2C(=O)CS[C@@H]2[C@H]2O[C@H](CO)[C@@H](O)[C@@H]2O)cc1` turned out to be 91.2

The value of Activity measured for the compound `Cc1ccc(N2C(=O)CS[C@H]2[C@H]2O[C@H](CO)[C@@H](O)[C@@H]2O)cc1` turned out to be 84.9

The value of Activity measured for the compound `COc1cccc(N2C(=O)CS[C@@H]2[C@H]2O[C@H](CO)[C@@H](O)[C@@H]2O)c1` turned out to be 17.6

The value of Activity measured for the compound `Cc1cccc(N2C(=O)CS[C@@H]2[C@H]2O[C@H](CO)[C@@H](O)[C@@H]2O)c1` turned out to be 163.5
